- System: S. aureus ATCC 25923 (methicillin-susceptible)
- RUN DESCRIPTION: In vitro antibacterial activity, MIC (UCL), MSSA
- Type: cell-based, Staphylococcus aureus
- CONDITION SUMMARY: Staphylococcus aureus; UCL assay; read-out: MSSA MIC (ug/mL) (UCL)
# MIC annotations

Check out these entries, answers already filled in.
STRUCTURE SMILES STRING: CC(=O)N(c1ccc(F)cc1)c1c(-c2ccccn2)nc2ccccn12
OBSERVATION TYPE: MIC
RESULT: > 32 µg/mL
--
STRUCTURE SMILES STRING: N#Cc1ccc(-c2nc(-c3ccccn3)c[nH]2)cc1
OBSERVATION TYPE: MIC
RESULT: > 32 µg/mL

Consider the additional molecule presented here.
query: Tell me the measured MIC of CS(=O)(=O)c1ccc2nc(-c3ccccn3)c(Nc3ccc(F)cc3)n2c1 , please.
result: > 32 µg/mL

* * *

- RUN DESCRIPTION: Human plasma protein binding (PPB)
- Assay type: in vitro ADME
- CONDITION SUMMARY: human, plasma, human plasma, NEU; read-out: Human PPB (NEU) (converted)
OBSERVATION TYPE: fraction unbound

Check out these entries, answers already filled in.
STRUCTURE SMILES STRING: c1ccc(-c2nc3n(c2-c2ccc4occc4c2)CCC3)nc1
OBSERVATION TYPE: fraction unbound
RECORDED NUMBER: 0.028
//
STRUCTURE SMILES STRING: Fc1ccc(Nc2c(-c3ccccn3)nc3sccn23)cc1
OBSERVATION TYPE: fraction unbound
RECORDED NUMBER: 0.014

I = CN(c1ccc(F)cc1)c1c(-c2ccccn2)nc2ccc(Br)cn12
II = c1ccc(-c2nc3n(c2-c2ccc4sccc4c2)CCC3)nc1
III = COc1ccn2cc(-c3ccccn3)nc2c1
IV = COc1ccc2nc(-c3ccccn3)c(N(C)c3cc(F)cc(F)c3)n2c1
query: Hello, I need these entries ordered by fraction unbound, highest reading first. Thanks! List the labels, following the order given in the request.
result: III, II, IV, I
(III: 0.21, II: 0.023, IV: 0.0085, I: 0.0018)

A = CN(c1ccc(F)cc1)c1c(-c2ccccn2)nc2c(F)cccn12
B = Fc1ccc(Nc2c(-c3ccccn3)nc3ccccn23)cc1
query: So which one has the bigger fraction unbound here, A or B ? Let me know the label of the one you choose.
result: A

* * *

- RUN DESCRIPTION: Human plasma protein binding (PPB)
- Type: in vitro ADME
- CONDITION SUMMARY: human, plasma; read-out: Human PPB (converted)
- Procedure: To guide our initial SAR exploration work, we obtained liver microsomal intrinsic clearance data for 5 of the 18 compounds assayed by CO-ADD (Supporting Information - CDCO Report and Supporting Information - Biology). […] ADME and toxicity for compounds were measured according to procedures outlined in the manuscript submitted in parallel to this one;2 other procedures were used for those compounds analysed by Monash University (in vitro ADME) or UCL (toxicity), both described in the main
OBSERVATION TYPE: fraction unbound

MOLECULE: CS(=O)(=O)c1ccc(-c2c(-c3ccccn3)nc3n2CCC3)cc1
fraction unbound: 0.4

1 = C[S+]([O-])c1ccc(-c2c(-c3ccccn3)nc3n2CCC3)cc1 (stereo not drawn)
2 = N#Cc1ccc(-c2c(-c3ccccn3)nc3n2CCC3)cc1
query: Lowest fraction unbound? choose 1 or 2 Let me know the label of the one you choose.
result: 2

* * *

# MRC5 TC50 annotations
- Tested on: MRC-5SV2 (human lung fibroblast cell line)
- RUN DESCRIPTION: Toxicity against MRC-5SV2
- Type: cell-based
- CONDITION SUMMARY: MRC5 cells
- Description: ADME and toxicity for compounds were measured according to procedures outlined in the manuscript submitted in parallel to this one;2 other procedures were used for those compounds analysed by Monash University (in vitro ADME) or UCL (toxicity), both described in the main
State just the number; it will be interpreted in µM.

MOLECULE: c1ccc(-c2nc3ccccc3n2-c2ccc3occc3c2)nc1 [OSA_000991]
MRC5 TC50, µM: 64
--
MOLECULE: N#Cc1ccc(-c2c(-c3ccccn3)nc3n2CCC3)cc1C(F)(F)F [OSA_001077]
MRC5 TC50, µM: 64
--
MOLECULE: c1ccc(-n2c(-c3ccccn3)nc3ccccc32)cc1 [OSA_000992]
MRC5 TC50, µM: 64
--
MOLECULE: c1ccc(-c2nc3n(c2-c2ccncc2)CCC3)nc1 [OSA_001072]
MRC5 TC50, µM: 64
--
MOLECULE: CS(=O)(=O)c1ccc2nc(-c3ccccn3)c(Nc3ccc(F)cc3)n2c1 [OSA_001020]
MRC5 TC50, µM: 64

query: Tell me the measured MRC5 TC50 of CCCN(c1ccc(F)cc1)c1c(-c2ccccn2)nc2ccccn12 [OSA_000982] , please.
result: 4.3

query: Tell me the measured MRC5 TC50 of NC(=O)c1ccc(-n2c(-c3ccccn3)nc3ccccc32)cc1 [OSA_000989] , please.
result: 64

query: Tell me the measured MRC5 TC50 of COc1ccn2c(-c3ccc(F)cc3)c(-c3ccccn3)nc2c1 [OSA_000858] , please.
result: 3.62

* * *

- RUN DESCRIPTION: Aqueous solubility
- Type: physicochemical
- CONDITION SUMMARY: thermodynamic from solid; NEU; read-out: Aqueous Solubility (NEU)
- Description: To guide our initial SAR exploration work, we obtained liver microsomal intrinsic clearance data for 5 of the 18 compounds assayed by CO-ADD (Supporting Information - CDCO Report and Supporting Information - Biology). […] ADME and toxicity for compounds were measured according to procedures outlined in the manuscript submitted in parallel to this one;2 other procedures were used for those compounds analysed by Monash University (in vitro ADME) or UCL (toxicity), both described in the main
OBSERVATION TYPE: solubility (µM)

P = Cc1nc2cc(-c3c(-c4ccccn4)nc4n3CCC4)ccc2s1
Q = COc1ccn2cc(-c3ccccn3)nc2c1
R = c1cncc(-c2nc3n(c2-c2ccc4occc4c2)CCC3)c1
query: For the compounds shown above, give the order from largest solubility to smallest. List the labels, following the order given in the request.
result: Q, R, P
(Q: 723 µM, R: 344 µM, P: 10 µM)

I = c1ccc(-c2nc3n(c2-c2ccc4occc4c2)CCC3)nc1
II = COc1ccc2nc(-c3ccccn3)c(N(C)c3ccc(F)cc3)n2c1
query: Lowest solubility? choose I or II Let me know the label of the one you choose.
result: II

* * *

- Tested on: Staphylococcus aureus NCTC 13373 (mecA-positive; methicillin-resistant)
- RUN DESCRIPTION: In vitro antibacterial activity, MIC (UCL School of Pharmacy assay), MRSA
- Format: cell-based
# MRSA MIC annotations

STRUCTURE SMILES STRING: CN(C)Cc1ccc2nc(-c3ccccn3)c(Nc3cccc(F)c3)n2c1
RESULT: > 32 µg/mL

STRUCTURE SMILES STRING: COCc1ccc2nc(-c3ccccn3)c(Nc3cccc(F)c3)n2c1
RESULT: > 32 µg/mL

Consider the additional molecule presented here.
query: Provide the documented MRSA MIC with Staphylococcus aureus NCTC 13373 (mecA-positive; methicillin-resistant) as the system for COc1ccn2c(Nc3ccnc(C)c3)c(-c3ccccn3)nc2c1
result: > 32 µg/mL

* * *

- RUN DESCRIPTION: Rat hepatocyte intrinsic clearance
- Format: in vitro ADME
- CONDITION SUMMARY: rat hepatocytes, NEU; read-out: Rat Hep CLint (NEU)
OBSERVATION TYPE: hepatocyte CLint (µL/min/1e6 cells)

MOLECULE: CCN(CC)c1ccc(-c2c(-c3ccccn3)nc3ccccn23)cc1 [OSA_001011]
OBSERVATION TYPE: hepatocyte CLint
RECORDED NUMBER: 192
//
MOLECULE: CCN(c1ccc(F)cc1)c1c(-c2ccccn2)nc2ccccn12 [OSA_000981]
OBSERVATION TYPE: hepatocyte CLint
RECORDED NUMBER: 148

* * *

# PMM TC50 annotations
- System: PMM (primary mouse macrophages)
- RUN DESCRIPTION: Toxicity against PMM
- Type: cell-based
State just the number; it will be interpreted in µg/mL.

Check out these entries, answers already filled in.
STRUCTURE SMILES STRING: Nc1ccc(-c2c(-c3ccccn3)nc3n2CCC3)cc1
RECORDED NUMBER: 2.2
--
STRUCTURE SMILES STRING: Cc1ccn2cc(-c3ccccn3)nc2c1
RECORDED NUMBER: 13.4
--
STRUCTURE SMILES STRING: Fc1ccc(Nc2c(-c3ccccn3)nc3sccn23)cc1
RECORDED NUMBER: 9.9
--
STRUCTURE SMILES STRING: CCCN(c1ccc(F)cc1)c1c(-c2ccccn2)nc2ccccn12
RECORDED NUMBER: 0.7
--
STRUCTURE SMILES STRING: N#CCc1ccc(-n2c(-c3ccccn3)nc3ccccc32)cc1
RECORDED NUMBER: 19.9
--
STRUCTURE SMILES STRING: Fc1ccc(Nc2c(-c3ccccn3)nc3ccccn23)cc1
RECORDED NUMBER: 9.7
--
STRUCTURE SMILES STRING: N#Cc1ccc(-c2c(-c3ccccn3)nc3n2CCC3)cc1
RECORDED NUMBER: 18.3
--
STRUCTURE SMILES STRING: FC(F)(F)c1ccc(-c2c(-c3ccccn3)nc3n2CCC3)cc1
RECORDED NUMBER: 10.5
--
STRUCTURE SMILES STRING: CCN(c1ccc(F)cc1)c1c(-c2ccccn2)nc2ccccn12
RECORDED NUMBER: 2.7
--
STRUCTURE SMILES STRING: Fc1ccc(-c2c(-c3ccccn3)nc3n2CCC3)cc1
RECORDED NUMBER: 8.9

query: Tell me the measured PMM TC50 of COc1ccn2cc(-c3ccccn3)nc2c1 , please.
result: 14.4

query: Tell me the measured PMM TC50 of Fc1cc(-c2c(-c3ccccn3)nc3n2CCC3)ccn1 , please.
result: 9.0

query: Tell me the measured PMM TC50 of COc1ccn2c(-c3ccc(F)cc3)c(-c3ccccn3)nc2c1 , please.
result: 2.6

query: Tell me the measured PMM TC50 of Fc1cccc(-c2c(-c3ccccn3)nc3n2CCC3)c1 , please.
result: 15.3

query: Tell me the measured PMM TC50 of CS(=O)(=O)c1ccc2nc(-c3ccccn3)c(Nc3ccc(F)cc3)n2c1 , please.
result: 12.2

query: Tell me the measured PMM TC50 of Cc1ccc2nc(-c3ccccc3)c(CNc3cccc(C(F)(F)F)c3)n2c1 , please.
result: 24.4

query: Tell me the measured PMM TC50 of Clc1ccc(-c2c(-c3ccccn3)nc3n2CCC3)cc1 , please.
result: 2.4

query: Tell me the measured PMM TC50 of c1ccc(-c2nc3ccccc3n2-c2ccc(N3CCOCC3)cc2)nc1 , please.
result: 22.8

query: Tell me the measured PMM TC50 of NC(=O)c1ccc(-n2c(-c3ccccn3)nc3ccccc32)cc1 , please.
result: 20.1

query: Tell me the measured PMM TC50 of c1ccc(-n2c(-c3ccccn3)nc3ccccc32)cc1 , please.
result: 17.4

query: Tell me the measured PMM TC50 of COc1ccn2c(-c3ccccc3)c(-c3ccccn3)nc2c1 , please.
result: 2.4

query: Tell me the measured PMM TC50 of Cc1ccc2nc(-c3ccccc3)cn2c1 , please.
result: 13.3

query: Tell me the measured PMM TC50 of c1ccc(-c2nc3ccccc3n2-c2ccc(N3CCCCC3)cc2)nc1 , please.
result: 5.4
